measurementTarget: 14-3-3ε (Homo sapiens)
Construct: Plasmids containing the cDNAs of the full-length 14-3-3 isoforms ε, γ, and ζ were received
Sequence (P62258 whole entry, canonical isoform): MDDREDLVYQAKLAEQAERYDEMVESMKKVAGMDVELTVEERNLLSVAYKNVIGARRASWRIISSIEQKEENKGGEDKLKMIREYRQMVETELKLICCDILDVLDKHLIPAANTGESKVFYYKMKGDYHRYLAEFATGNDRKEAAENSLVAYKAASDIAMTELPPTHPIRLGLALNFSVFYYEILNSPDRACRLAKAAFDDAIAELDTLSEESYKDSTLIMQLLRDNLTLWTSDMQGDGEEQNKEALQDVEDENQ
protocolNotes: biochemical
Starred links: 1 amine or outer side, 2 acyl side, 3 side chain; linkers in the order of their positions; H or OH if unused. Non-standard residues stand in square brackets, D forms with d. Residues, ends and D or L forms follow the SMILES beside them. *: point of attachment. X1 = O=C(CCCC[C@@H]1SC[C@@H]2NC(=O)N[C@@H]21)NCCCOCCOCCOCCCN*; pT = C[C@@H](OP(=O)(O)O)[C@H](N)C(=O)O; Suc = O=C(CCC(=O)[*:2])[*:1]
assayMetric: Kd (µM)

molecule	unitString	censoringQualifier	measuredValue
CC(C)C[C@H](NC(=O)[C@H](C)NC(=O)[C@@H](NC(=O)[C@H](CCC(=O)O)NC(=O)[C@H](CCCNC(=N)N)NC(=O)[C@H](CCCNC(=N)N)NC(=O)[C@H](CCCNC(=N)N)NC(=O)[C@H](CO)NC(=O)[C@H](CCCNC(=N)N)NC(=O)[C@H](CO)NC(=O)CCC(=O)NCCCOCCOCCOCCCNC(=O)CCCC[C@@H]1SC[C@@H]2NC(=O)N[C@@H]21)[C@@H](C)OP(=O)(O)O)C(=O)O [pHPV33E6] ({X1-Suc}-SRSRRRE[pT]AL-OH)	µM	=	10.3
CC(C)[C@H](NC(=O)[C@H](C)NC(=O)[C@@H](NC(=O)[C@H](CCC(=O)O)NC(=O)[C@H](CCCNC(=N)N)NC(=O)[C@H](CCCNC(=N)N)NC(=O)[C@H](CCCNC(=N)N)NC(=O)[C@@H]1CCCN1C(=O)[C@H](CCCCN)NC(=O)[C@H](CO)NC(=O)CCC(=O)NCCCOCCOCCOCCCNC(=O)CCCC[C@@H]1SC[C@@H]2NC(=O)N[C@@H]21)[C@@H](C)OP(=O)(O)O)C(=O)O [pHPV35E6T-6R, E-1A] ({X1-Suc}-SKPRRRE[pT]AV-OH)	µM	=	13
CC(C)C[C@H](NC(=O)[C@H](CCC(N)=O)NC(=O)[C@@H](NC(=O)[C@H](CCC(=O)O)NC(=O)[C@H](CCCNC(=N)N)NC(=O)[C@H](CCCNC(=N)N)NC(=O)[C@@H](NC(=O)[C@H](CCCNC(=N)N)NC(=O)[C@H](CO)NC(=O)[C@H](CO)NC(=O)CCC(=O)NCCCOCCOCCOCCCNC(=O)CCCC[C@@H]1SC[C@@H]2NC(=O)N[C@@H]21)[C@@H](C)O)[C@@H](C)OP(=O)(O)O)C(=O)O	µM	>	300
CC(C)[C@H](NC(=O)[C@H](CCC(=O)O)NC(=O)[C@@H](NC(=O)[C@H](CCC(=O)O)NC(=O)[C@H](CCCNC(=N)N)NC(=O)[C@H](CCCNC(=N)N)NC(=O)[C@@H](NC(=O)[C@@H]1CCCN1C(=O)[C@H](CCCCN)NC(=O)[C@H](CO)NC(=O)CCC(=O)NCCCOCCOCCOCCCNC(=O)CCCC[C@@H]1SC[C@@H]2NC(=O)N[C@@H]21)[C@@H](C)O)[C@@H](C)OP(=O)(O)O)C(=O)O [pHPV35E6] ({X1-Suc}-SKPTRRE[pT]EV-OH)	µM	>	300

The measurements presented in this section are drawn from paper PMC7961048.
